B1: glmS ribozyme (parent)
chain: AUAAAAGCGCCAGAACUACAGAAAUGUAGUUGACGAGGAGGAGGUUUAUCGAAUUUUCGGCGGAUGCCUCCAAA

- Variants of: B1
- ASSAY_NAME: self-cleavage kobs at 10000 uM GlcN6P; higher = faster cleavage; RNA array
- TEST_SETTINGS: with glucosamine-6-phosphate
Variants at the floor of the assay were thinned out.

VARIANT | self-cleavage kobs at 10000 uM GlcN6P
C16A G41A G51C | < 1e-05 s⁻¹
C50A G59C | < 1e-05 s⁻¹
G7C G13C G63U C70G | < 1e-05 s⁻¹
G13A C16A A52U | < 1e-05 s⁻¹
C10A U47G G63A | < 1e-05 s⁻¹
G7C U46C | < 1e-05 s⁻¹
A12C G63U | < 1e-05 s⁻¹
C8U U55A C58A | < 1e-05 s⁻¹
C10G G37C U47A U57A G66C C70G | < 1e-05 s⁻¹
G29A C34G C67U | < 1e-05 s⁻¹
G35C C58A | < 1e-05 s⁻¹
C8A G32U | < 1e-05 s⁻¹
A6G G60A | < 1e-05 s⁻¹
A14G G40C U49G C50G G51C | < 1e-05 s⁻¹
G13U U56G | 0.000774 s⁻¹
A6U U56C | 2.11e-05 s⁻¹
G35U U57A | < 1e-05 s⁻¹
G26U C58U | 7.64e-05 s⁻¹
G13A U31A A48C C50U G60U C67A | < 1e-05 s⁻¹
A53U G59A | 4.2e-05 s⁻¹
C16U G29U G32C | 8.38e-05 s⁻¹
A33G G40U G43A U49A C58U | < 1e-05 s⁻¹
G9A U65A C67A C70G | 5.56e-05 s⁻¹
U54G C58U | 7.98e-05 s⁻¹
G13U G29U A52G C67G | 8.86e-05 s⁻¹
G9A G29A U31A G35U A36C C70U | < 1e-05 s⁻¹
C34A A48U C68A C71G | < 1e-05 s⁻¹
G37A G40A | 0.000583 s⁻¹
A14U U30G U55G C70A | 3.35e-05 s⁻¹
A15C G35C C50G | 4.99e-05 s⁻¹
G35U G66U | < 1e-05 s⁻¹
A6G U55G C70U | 8.99e-05 s⁻¹
